Target: hemagglutinin (HA) of influenza B virus B/Florida (Yamagata lineage) (influenza B virus B/Florida/06 …)
EXPERIMENTAL READOUT: Kd (nM)
Just the number in nM, nothing appended.

In: What value of Kd has been reported for the following binder? TRL848 (antibody, V domains shown) VH: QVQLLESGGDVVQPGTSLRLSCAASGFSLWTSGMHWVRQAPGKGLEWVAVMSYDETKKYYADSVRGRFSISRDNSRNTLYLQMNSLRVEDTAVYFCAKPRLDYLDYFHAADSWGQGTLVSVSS VL: DIVLTQPPSVSVAPGQTATITCGGNYIGSKSVNWYQQRPGHAPVLVVYDDSDRPSGIPDRFSGSNSRSTATTATLTISRVEAGDEADYYCQVWETSEDLWVFGGGTKLTVLG
Out: 1.7

In: Entry TRL854 (antibody, V domains shown) VH: QVQLVESGAEVKKPGASVRVSCKGSGYTFTAYHMHWVRQAPGQGFEWVGWINPNSGATYYTSTFEGRVTMTRDTSITTAYMELSSLRSDDTAVYYCATDIVVERDASLGGFNSYGMDVWGQGTTVTVSS VL: DIEMTQSPLSLPVTPGEPASISCRSSQSLLHSNGYNHLAWYLQKPGRSPHLLIYLASTRASGVPDRFSGSGSGTDFTLKISRVEAEDVGIYYCMQSLQTSITFGQGTRLEIKR : reported Kd = ?
Out: 8.8

In: Data request, read-out Kd, for TRL846 (antibody, V domains shown) VH: QVQLVESGGGLVQPGGSLRLSCTVSGFTFNSYAMNWVRQAPGKGLEWVSGIRGSGENTYYAETVKGRFTISRDNSKNTLYLEMNSLRAEDTAVYYCARKWGRMTVFGVATDQLYYFDYWGQGTLVTVSS VL: DITLTQSPATLSVSPGERATLSCRASQSVSSNLAWYQQKPGQAPRLLIYGASNRATDIPARFSGSGSGTEFTLTISSLQSEDFAVYYCQQFNDWPFLTFGGGTKVEIKR
Out: 0.85

In: Entry TRL845 (antibody, V domains shown) VH: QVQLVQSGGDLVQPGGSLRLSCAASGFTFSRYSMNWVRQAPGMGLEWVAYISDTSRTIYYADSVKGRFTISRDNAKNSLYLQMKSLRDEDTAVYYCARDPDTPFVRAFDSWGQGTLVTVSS VL: DIVLTQSPSFLSASVGDRVTITCRASQLISSYFAWYQQKPGKPPKLLIYAASTLQSGVPSRFSGSGSGTQFSLTISSLQPEDFATYYCQQLNSYPPITFGQGTRLEIKR has what Kd?
Out: 0.19

The origin of these recorded values is patent US20170189529A1.
